All values here come from PubChem BioAssay (NCI).

system: SNB-75 CNS; assay: NCI tumour cell line growth inhibition, 48 h
Recorded TGI by entry
Give just the numeric value; µM need not be written.

// solved cases for TGI follow
compound: CCCC(=O)O[C@]1(C)CC[C@@H]2[C@H]3[C@@H]1[C@@H]1C[C@@](C)(O)[C@H](OC)CC[C@](C)(OC(=O)[C@@H]2C)[C@H]3O1
tested.on: SNB-75 CNS
readout.value: 39.2
--
compound: C=C1CCC[C@@H](C)C(O)[C@@H]2OC(=O)C(=C)[C@@H]2C[C@@H](OC(C)=O)[C@@]2(C)CC[C@@H]1O2 (stereo not given in full)
tested.on: SNB-75 CNS
readout.value: 10.1
--
compound: COc1cc(/C=N/NC(=O)c2cnn3c2NC(c2ccccc2)C3)ccc1OC1CCCC1 (stereo not given)
tested.on: SNB-75 CNS
readout.value: 0.778
--
compound: COc1ccc(N2C(=O)C3c4[nH]c5c(C)cccc5c4C4CCC(C(C)C)CC4C3C2=O)cc1 (stereo not given)
tested.on: SNB-75 CNS
readout.value: 9.4

# context switch: different compound, same TGI
In: State the recorded TGI for this entry: Nc1[nH]c(=O)nc2c1ncn2C1OC(CO)C(O)C1O (stereo not given)
Out: 20.6

----------
test system: SK-MEL-5 melanoma; test: NCI tumour cell line growth inhibition, 48 h
Recorded TGI by entry

// solved cases for TGI follow
molecule: COC(=N)C1(C#N)NC(c2ccsc2)C(C#N)(C#N)NC1c1ccsc1 (stereo not given)
TGI: > 100 µM

molecule: Cc1ccc(C2=CC(=O)c3ccccc3C2=O)n1-c1ccccc1
TGI: > 100 µM

molecule: Cc1nc2c(Br)cc(Br)cc2c(=O)n1-c1ccccc1NC1OC(CO)C(O)C(O)C1O (stereo not given)
TGI: > 100 µM

molecule: CCC1(c2ccc(N3C(=O)c4cccc5cc([N+](=O)[O-])cc(c45)C3=O)cc2)CCC(=O)NC1=O (stereo not given)
TGI: > 100 µM

molecule: O=c1c(Cc2ccccc2)c(O)cc2n1CCC2
TGI: > 100 µM

molecule: O=c1c2cc(Br)cc(Br)c2[nH]c(=S)n1-c1ccc(N=Nc2ccc(O)c3cccnc23)cc1
TGI: 29 µM

molecule: CN(CCCCCl)P(=O)(OCc1ccc([N+](=O)[O-])o1)OCC1OC(n2ccc(N)nc2=O)C(O)C1O (stereo not given)
TGI: 1.15 µM

molecule: Cc1cc(Cl)ccc1NC(=O)CCCC(=O)C1C/C(=N/O)CC/C1=N\O (stereo not given)
TGI: > 100 µM

molecule: NC(=O)[C@H](Cc1ccc(O)cc1)Nc1c(O)c2c(c(O)c1Cl)C(=O)C=CC2=O
TGI: 3.04 µM

molecule: O=P1(N(CCCl)CCCl)Oc2ccc(Cl)cc2C(C(Cl)(Cl)Cl)c2cc(Cl)ccc2O1 (stereo not given)
TGI: 24 µM

In: State the recorded TGI for this entry: O=C(c1ccccc1)C1N=NN(Cc2ccccc2[N+](=O)[O-])C1C(=O)c1ccccc1 (stereo not given)
Out: > 100 µM

In: State the recorded TGI for this entry: CCN(CC)C(=S)SSC(C)C
Out: 24.2 µM

In: State the recorded TGI for this entry: C[C@H]1S[C@@H](c2ccc(Cl)cc2Cl)N(NC(=O)c2ccncc2)C1=O
Out: > 100 µM
